Target: chimeric human RORγ-Gal4 receptor (Homo sapiens)
Sequence (P51449 269-508 limits assumed): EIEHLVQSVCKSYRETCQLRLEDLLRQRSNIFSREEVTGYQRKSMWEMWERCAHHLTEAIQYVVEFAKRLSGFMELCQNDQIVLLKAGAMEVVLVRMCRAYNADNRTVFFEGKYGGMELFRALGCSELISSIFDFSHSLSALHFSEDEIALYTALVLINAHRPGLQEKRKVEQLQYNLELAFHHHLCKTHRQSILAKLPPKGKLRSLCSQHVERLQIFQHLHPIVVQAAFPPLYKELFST
Assay: transient transactivation assay (RORγ-Gal4 luciferase reporter)
Assay type: cell-based
Settings: Cos-7 cells transfected with RORγ-Gal4 and 5Gal4 pGL3 TK Luc reporter; overnight incubation; T0901317 at 10^-5 M as reference; read-out: IC50
pIC50: −log10 of the molar value.
parameter: pIC50

Observe how each entry below is paired with its result.
In [3]: df
Out[3]:
                                   compound  parameter  observed_result
0  Cc1cc(C(F)(F)F)cn2c(C)c(Cc3c(Cl)ccc(C(=O)N4CCC(C(C)(C)O)CC4)c3Cl)nc12      pIC50           > 7.00
1  Cc1cc(C(F)(F)F)cc2c(C)n(C(=O)c3c(Cl)ccc(C(=O)N4CCC(CC(=O)O)CC4)c3Cl)nc12      pIC50           > 7.00
2  CNC(=O)[C@@H]1CCCN1C(=O)c1ccc(Cl)c(Cc2cc3c(C)cc(C#N)cc3n2C)c1Cl      pIC50     6.30 to 7.00
3  Cc1cc(C#N)cc2c1cc(Cc1c(Cl)ccc(C(=O)N3CCC(C(C)(C)CO)CC3)c1Cl)n2C      pIC50           > 7.00
4  Cc1cc(C(F)(F)F)cc2c1nc(Cc1c(Cl)ccc(C(=O)N3CCC(C(C)O)CC3)c1Cl)n2C (centres unmarked)      pIC50           > 7.00
5  Cc1c(Br)ccc2c1nc(Cc1c(Cl)ccc(C(=O)N3CCOCC3)c1Cl)n2C      pIC50     6.30 to 7.00

Kindly note the recorded pIC50 for Cc1cc(C(F)(F)F)nc2c1cc(C(=O)c1c(Cl)ccc(C(=O)N3CCC(C#N)CC3)c1Cl)n2C , which is > 7.00

Kindly note the recorded pIC50 for Cc1cc(OC(F)(F)F)cc2c1cc(Cc1c(Cl)ccc(C(=O)N3CC[C@H](C(=O)O)[C@H](C)C3)c1Cl)n2C , which is > 7.00

====

Items are presented alongside their recorded pIC50.
molecular target: chimeric human RORγ-Gal4 receptor (Homo sapiens, UniProt P51449); experiment: transient transactivation assay (RORγ-Gal4 luciferase reporter); assay type: cell-based; settings: Cos-7 cells transfected with RORγ-Gal4 and 5Gal4 pGL3 TK Luc reporter; overnight incubation; T0901317 at 10^-5 M as reference; read-out: IC50
pIC50: −log10 of the molar value.

Observe how each entry below is paired with its result.
                                   compound                               system_name  parameter  observed_result
0  Cc1cc(C(F)(F)F)cc2c1cc(Cc1c(Cl)ccc(C(=O)N3CCC(O)C(C(=O)O)C3)c1Cl)n2C (stereo not drawn)  chimeric human RORγ-Gal4 receptor (Homo sapiens, UniProt P51449)      pIC50     5.00 to 6.00
1  Cc1cc(C(F)(F)F)cc2c1c(Cc1c(Cl)ccc(C(=O)N3CCC(C(=O)O)CC3)c1Cl)cn2C  chimeric human RORγ-Gal4 receptor (Homo sapiens, UniProt P51449)      pIC50           > 7.00
2  Cc1cc(OC(F)(F)F)cc2c1cc(Cc1c(Cl)ccc(C(=O)N3CCOCC3)c1Cl)n2C  chimeric human RORγ-Gal4 receptor (Homo sapiens, UniProt P51449)      pIC50           > 7.00

Kindly note the recorded pIC50 for Cc1cn(C(=O)c2c(Cl)ccc(C(=O)N3CC[C@H](C(=O)O)[C@H](C)C3)c2Cl)c2c(C)cc(C(F)(F)F)cc12 , which is > 7.00

Kindly note the recorded pIC50 for Cc1cc(C(=O)N(C)C)cc2c1cc(Cc1c(Cl)ccc(C(=O)N3CCOCC3)c1Cl)n2C , which is > 7.00

Kindly note the recorded pIC50 for C[C@H]1CN(C(=O)c2ccc(Cl)c(Cc3cc4c(F)cc(C(F)(F)F)cc4n3C)c2Cl)CC[C@H]1C(=O)O , which is > 7.00

Kindly note the recorded pIC50 for Cc1cc(C(F)(F)F)cn2c(C)c(Cc3c(Cl)ccc(C(=O)N4CCC(N(C)C)CC4)c3Cl)nc12 , which is 6.00 to 6.30

Kindly note the recorded pIC50 for Cn1c(Cc2c(Cl)ccc(C(=O)N3CCC(CC(=O)O)CC3)c2Cl)cc2c(F)cc(C(F)(F)F)cc21 , which is > 7.00

Kindly note the recorded pIC50 for Cc1cn(Cc2c(Cl)ccc(C(=O)N3CCC(CC(=O)O)CC3)c2Cl)c2c(C)cc(C#N)cc12 , which is > 7.00

Kindly note the recorded pIC50 for Cc1cc(C(F)(F)F)cc2c1cc(Cc1c(Cl)ccc(C(=O)N3CCC(C(=O)O)C(F)(F)C3)c1Cl)n2C (stereo not drawn) , which is > 7.00

Kindly note the recorded pIC50 for Cc1cc(C(F)(F)F)cc2c1c(Cc1c(Cl)ccc(C(=O)N3C[C@@H]4[C@H](C3)[C@H]4C(=O)O)c1Cl)cn2C , which is > 7.00

Kindly note the recorded pIC50 for Cc1cc(C(F)(F)F)cc2c1cc(C(=O)c1c(Cl)ccc(C(=O)N3CC[C@H](C(=O)O)[C@H](C)C3)c1Cl)n2C [AQ-4] , which is > 7.00

// data source = patent US10106501B2
